Tested on: Rattus norvegicus
procedure text: Distribution of [125I]AC in striatum after intravenous administration in rat after 1hour, expressed as percent dose/gram
Type: ADME, organism-based
condition description: in vivo
readout kind: Tissue distribution (%)
Give the value, in units of %, as a plain number.

// returns reported Tissue distribution for input `COc1cc(N)c(I)cc1C(=O)NC1CCN(Cc2ccccc2)CC1`
0.5

###

Tested on: Rattus norvegicus
procedure text: Distribution of [125I]AC in heart after intravenous administration in rat after 1hour, expressed as percent dose/gram
Type: ADME, organism-based
condition description: in vivo
readout kind: Tissue distribution (%)
Give the value, in units of %, as a plain number.

// returns reported Tissue distribution for input `COc1cc(N)c(I)cc1C(=O)NC1CCN(Cc2ccccc2)CC1`
0.35
